Kindly state CC50 at 48 h for each of the entries shown.
assay_overview: Toxicity Testing in Uninfected Cells
Assay type: cell-based
condition_summary: human, uninfected Hela-ACE (HeLa ACE2) cells, Cell-Titer Glo cell viability

# annotated cases, reported CC50 at 48 h shown
O=C1CCN(c2cc(F)c(Cl)c(OCC(F)(F)F)c2)C(=O)N1c1cncc2ccccc12	74 µM
O=C1CCN(c2cc(Cl)cc(OCC3CC(F)(F)C3)c2)C(=O)N1c1cncc2ccccc12	> 99 µM
O=C1CCN(c2cc(Cl)cc(OCC3CC3)c2)C(=O)N1c1cncc2ccccc12	73.4 µM

Items follow; give CC50 at 48 h for each.
1. O=C1N(c2cc(Cl)cc(OCC(F)(F)F)c2)CC2(CC2)C(=O)N1c1cncc2ccccc12
2. O=C1CCN(c2cc(Cl)cc(OCC(F)(F)F)c2)C(=O)N1c1cncc2ccccc12
3. O=C1CCN(c2cc(Cl)cc(N3CC4(COC4)C3)c2)C(=O)N1c1cncc2ccccc12

["> 99 µM", "> 99 µM", "> 99 µM"]
